Target: T1, human Klotho β (human, UniProt Q86Z14 1-1044)
T1 sequence (looked up): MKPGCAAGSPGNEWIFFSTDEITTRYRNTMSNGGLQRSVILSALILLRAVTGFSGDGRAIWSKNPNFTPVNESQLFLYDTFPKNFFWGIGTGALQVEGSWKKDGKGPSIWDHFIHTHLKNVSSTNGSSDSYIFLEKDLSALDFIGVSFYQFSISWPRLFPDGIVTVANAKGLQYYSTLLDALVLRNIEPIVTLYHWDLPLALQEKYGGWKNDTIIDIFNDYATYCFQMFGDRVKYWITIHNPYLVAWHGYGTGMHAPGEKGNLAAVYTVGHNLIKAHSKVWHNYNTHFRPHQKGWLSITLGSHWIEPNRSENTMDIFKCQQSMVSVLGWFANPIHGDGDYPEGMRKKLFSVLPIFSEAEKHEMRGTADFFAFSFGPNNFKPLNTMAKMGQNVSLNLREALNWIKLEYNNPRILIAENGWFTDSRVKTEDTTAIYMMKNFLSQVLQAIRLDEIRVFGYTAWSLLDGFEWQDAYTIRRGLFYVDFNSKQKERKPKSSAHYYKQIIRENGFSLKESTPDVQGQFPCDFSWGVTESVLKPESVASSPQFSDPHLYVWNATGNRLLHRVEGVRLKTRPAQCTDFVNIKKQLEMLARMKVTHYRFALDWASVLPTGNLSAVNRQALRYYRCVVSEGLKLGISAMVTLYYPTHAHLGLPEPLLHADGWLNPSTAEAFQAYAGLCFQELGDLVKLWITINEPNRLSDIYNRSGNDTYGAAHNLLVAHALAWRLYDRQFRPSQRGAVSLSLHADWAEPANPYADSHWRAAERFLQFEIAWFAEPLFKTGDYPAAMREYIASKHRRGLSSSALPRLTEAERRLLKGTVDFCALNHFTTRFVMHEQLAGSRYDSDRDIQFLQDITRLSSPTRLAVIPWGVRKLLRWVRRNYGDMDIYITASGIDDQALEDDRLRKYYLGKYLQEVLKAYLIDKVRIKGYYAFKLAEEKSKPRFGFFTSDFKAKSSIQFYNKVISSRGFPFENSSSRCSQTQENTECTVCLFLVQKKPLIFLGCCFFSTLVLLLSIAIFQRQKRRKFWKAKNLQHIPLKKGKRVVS
Experiment: cell-based or functional assay
Non-standard residues stand in square brackets, D forms with d. No end group written: not given here.
Recorded Metric: % Activity vs C25 (%)

Worked set:
# Binder, Recorded Metric, Units Label, Recorded Value
data = [
    ("PPDVGSSDPLSMVGPSQGRS[dP]SYAS-NH2 [FGF21 C25 d21]", "% Activity vs C25", "%", 3.8),
    ("PPDVGSSDPLSMVGPS[dQ]GRSPSYAS-NH2 [FGF21 C25 d17]", "% Activity vs C25", "%", 90.3),
    ("PPDVGSSDPLSMVGP[dS]QGRSPSYAS-NH2 [FGF21 C25 d16]", "% Activity vs C25", "%", 46),
    ("PPDVGSSDPLSMVGPSQGRSPSYAS-NH2 [FGF21 157-181]", "% Activity vs C25", "%", 100),
    ("PPDVGSSDPL[dS]MVGPSQGRSPSYAS-NH2 [FGF21 D11]", "% Activity vs C25", "%", 596),
]

[P] PPDVGSSDPLSMVGPSQGRSPSYA[dS]-NH2 [FGF21 C25 d25]
[Q] PPDVGSSDPLSMVGPSQG[dR]SPSYAS-NH2 [FGF21 D19]
[R] PPDVGSSDPLSMVG[dP]SQGRSPSYAS-NH2 [FGF21 C25 d15]
Ask: Reorder the items by % Activity vs C25, least to greatest. Your task in answering is to list the labels in the requested order.
Reply: R, P, Q

[a] PPDVGSSDPLSMVGPSQGRSPSY[dA]S-NH2 [FGF21 C25 d24]
[b] PP[dD]VGSSDPLSMVGPSQGRSPSYAS-NH2 [FGF21 C25 d3]
[c] [dP]PDVGSSDPLSMVGPSQGRSPSYAS-NH2 [FGF21 C25 d1]
Ask: List items by % Activity vs C25 in falling order. Your task in answering is to list the labels in the requested order.
Reply: c, a, b
(c: 54.2%, a: 32.3%, b: 15.6%)

[I] PPDVG[dS]SDPLSMVGPSQGRSPSYAS-NH2 [FGF21 C25 d6]
[II] P[dP]DVGSSDPLSMVGPSQGRSPSYAS-NH2 [FGF21 C25 d2]
[III] PPDVGSSDPLSMVGPSQGR[dS]PSYAS-NH2 [FGF21 C25 d20]
Ask: Reorder the items by % Activity vs C25, least to greatest. Your task in answering is to list the labels in the requested order.
Reply: III, II, I
(III: 2.3%, II: 7.61%, I: 32.5%)
